Target: HLA-A*02:03
Experiment: IEDB peptide-MHC binding, purified MHC/competitive/radioactivity; filed as Kd, often an IC50 or EC50 that approximates it; bounds were set here for any values at or beyond the usual limits of such assays
Conditions: source organism: Vaccinia virus WR
Each entry below lists one item and its recorded Kd value.
Write down the numeric answer in µM and omit the unit.

Solved entries (count: 6):
sequencestring=ALMTLDDLAI reportedmeasurement=0.0293
sequencestring=SANMDWRSLT reportedmeasurement=11.3
sequencestring=YAGTIKESLL reportedmeasurement=4.04
sequencestring=LLENKSLTIL reportedmeasurement=0.541
sequencestring=SLTTIGTIA reportedmeasurement=0.00369
sequencestring=FTSYKRFVT reportedmeasurement=3.38

Input: Returns the measured Kd for the input sequence. Input: `RISSSLDQT`
Output: 12.8

Input: Same lookup for `GLDERFVEEL` , please.
Output: 1.21

Input: Same lookup for `TVKNVDIIDL` , please.
Output: 8.31

Input: Same lookup for `AAKTPVIVV` , please.
Output: 1.63

Input: Same lookup for `EVIGLTTHCT` , please.
Output: 14.9
